Target: hROMK (human Kir1.1) (Homo sapiens (Human))
Assay: cell-based
Format: cell-based
Conditions: whole-cell manual patch clamp, CHO T-Rex hROMK stable cell line, voltage step to -120 mV, Ba2+-subtracted hROMK current; read-out: ROMK EP IC50
measurement_label: pIC50
Friendly reminder that pIC50 comes from taking -log10 of the concentration in mol/L.

>  <compound>
COc1cc(-n2cc(CN3CCN[C@H](c4ccc5c(c4C)COC5=O)C3)nn2)nc(C)c1C#N

>  <pIC50>
7.60

$$$$
>  <compound>
Cc1cc(-n2ncc(C(C)N3CCN[C@H](c4ccc5c(c4C)COC5=O)C3)n2)ncc1C#N (single isomer, unassigned)

>  <pIC50>
6.13

$$$$
>  <compound>
Cc1ncn(-c2ccc(CN3CCN[C@H](c4ccc5c(c4C)COC5=O)C3)cn2)n1

>  <pIC50>
7.54

$$$$
>  <compound>
COc1cc(-n2cc(CN3CCN[C@H](c4ccc5c(c4C)COC5=O)C3)cn2)ncc1C#N

>  <pIC50>
8.32

$$$$
>  <compound>
Cc1nc(-n2ncc(CN3C[C@@H](c4ccc5c(c4C)COC5=O)N[C@@H](C)C3)n2)ncc1C#N

>  <pIC50>
7.60

$$$$

Challenge: Entry COc1nc(-n2ncc(CN3C[C@@H](c4ccc5c(c4C)COC5=O)N[C@@H](C)C3)n2)ncc1C#N has what pIC50?
Response given: 7.89

Challenge: If you can, please state the reported pIC50 value of COc1cc(-n2ncc(CN3C[C@@H](c4ccc5c(c4C)COC5=O)N[C@@H](C)C3)n2)ncc1C#N .
Response given: 7.74

---

Target: hROMK (human Kir1.1) (Homo sapiens (Human), UniProt P48048)
Sequence (P48048 whole entry): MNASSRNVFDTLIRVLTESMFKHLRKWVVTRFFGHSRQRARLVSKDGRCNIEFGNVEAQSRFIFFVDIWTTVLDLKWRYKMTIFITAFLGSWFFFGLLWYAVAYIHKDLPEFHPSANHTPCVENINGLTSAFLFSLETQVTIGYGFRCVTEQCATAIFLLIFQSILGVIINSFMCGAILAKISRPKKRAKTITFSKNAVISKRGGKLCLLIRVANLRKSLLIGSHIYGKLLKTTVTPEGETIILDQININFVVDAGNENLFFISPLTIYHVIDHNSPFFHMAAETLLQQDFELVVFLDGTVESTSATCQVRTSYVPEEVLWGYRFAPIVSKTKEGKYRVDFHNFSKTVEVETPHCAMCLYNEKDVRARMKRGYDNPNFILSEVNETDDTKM
Test: cell-based
Details: CHO T-Rex hROMK stable cell line; thallium flux; 10-point concentration response curve; read-out: Human ROMK Th Flux IC50
measurement_label: pIC50
# pIC50: negative log10 of molar concentration; output just the value

>  <compound>
Cc1c([C@@H]2CN(Cc3cnc(-n4cnc(C#N)c4)nc3)CCN2)ccc2c1COC2=O

>  <measurement_target>
hROMK (human Kir1.1) (Homo sapiens (Human), UniProt P48048)

>  <pIC50>
7.96

$$$$

Challenge: Dear colleague, I am looking for the recorded pIC50 of the following compound: CC(=O)NC1CCN(Cc2cnn(-c3cc(C)c(C#N)cn3)c2)CC1c1ccc2c(c1C)COC2=O (single isomer, unassigned)
Response given: 5.82

Challenge: Bench note: what pIC50 did Cc1cc(N2CCOC2=O)cc(-n2cc(CN3C[C@@H](c4ccc5c(c4C)COC5=O)N[C@@H](C)C3)cn2)c1 show?
Response given: 6.31

Challenge: Looking for the measured pIC50 of Cc1c([C@@H]2CN(Cc3cnn(-c4cc(C#N)ccn4)c3)CCN2)ccc2c1COC2=O , can you help?
Response given: 7.08

Challenge: Would you mind telling me what pIC50 value was observed for COc1cc(-n2cc(CN3CCN[C@H](c4ccc5c(c4C)COC5=O)C3)cn2)ncc1C#N ?
Response given: 7.70

Challenge: Record request: pIC50 value, item Cc1cc(-n2cc(CN3CC(CO)NC(c4ccc5c(c4C)COC5=O)C3)nn2)ncc1C#N (single isomer, unassigned)
Response given: 7.44

Challenge: Recorded pIC50 of Cc1cc(-c2nnc(CN3CCN[C@H](c4ccc5c(c4C)COC5=O)C3)o2)ncc1C#N , please.
Response given: 6.96
